system.under.test: T1, hVISTA-ECD 6-His tag (human, UniProt Q9H7M9 33-193)
T1 construct: also called monovalent hVISTA-ECD; human VISTA
experiment.summary: SPR 37 C, Ab on Protein A, pH 6.0
Listed below: koff values for each entry.
Numbers only here, please. The scale is s⁻¹.

Guide cases for koff, answers given:
P1-077863 (P1-068744 E59Y E102Y) (antibody, V domains shown) VH: QVQLVESGGGVVQPGRSLRLSCAASGFTFSEYAMHWVRQAPGKGLEWVAHIWYDGSNKYYADSVKGRFTISRDNSKNTLYLQMNSLRAEDTAVYYCARDSGFYESYYFDYWGQGTLVTVSS VL: EIVLTQSPATLSLSPGERATLSCRASQSVSSSYLAWYQQKPGQAPRLLIYDASNRATGIPARFSGSGSGTDFTLTISSLEPEDFATYYCQQYNSYPYTFGQGTKLEIK ... 0.017
P1-077853 (P1-068744 E31S E102Y) (antibody, V domains shown) VH: QVQLVESGGGVVQPGRSLRLSCAASGFTFSSYAMHWVRQAPGKGLEWVAHIWYDGSNKYEADSVKGRFTISRDNSKNTLYLQMNSLRAEDTAVYYCARDSGFYESYYFDYWGQGTLVTVSS VL: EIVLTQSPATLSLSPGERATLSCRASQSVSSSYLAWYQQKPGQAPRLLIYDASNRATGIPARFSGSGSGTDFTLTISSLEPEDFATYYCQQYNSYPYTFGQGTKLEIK ... 0.0019

Below: the item to evaluate.
Request: Reported koff for P1-077855 (P1-068744 E31S E59Y) (antibody, V domains shown) VH: QVQLVESGGGVVQPGRSLRLSCAASGFTFSSYAMHWVRQAPGKGLEWVAHIWYDGSNKYYADSVKGRFTISRDNSKNTLYLQMNSLRAEDTAVYYCARDSGFYESYYFDEWGQGTLVTVSS VL: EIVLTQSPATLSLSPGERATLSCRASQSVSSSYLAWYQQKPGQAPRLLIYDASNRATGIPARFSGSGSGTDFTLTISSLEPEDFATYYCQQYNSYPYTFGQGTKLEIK : what is it?
Result: 0.0077
